# TEST_DESCRIPTION: Cytotoxicity against mouse B16-4A5 cells assessed as cell viability at 10 uM after 72 hrs by MTT assay in presence of theophylline relative to control
# Type: cell-based
# DETAILS: read-out: Activity
REPORTED_PROPERTY: viability at 72 h, 10 µM (%)
Please reply with the bare figure in % and do not write the unit itself.

INPUT: Look at this molecule and give its reported viability at 72 h, 10 µM. COc1ccc2c(c1)C(C)(C)c1nccc3cc4c(c-2c13)OCO4
OUTPUT: 86.7
